Consider the following compounds and their measured normalised response readings.
Test system: HDQ-P1
protocolDetails: normalised response (% of control), CellTiter-Glo; higher = more viable cells (100 = DMSO, 0 = benzethonium chloride kill control)
experimentalSetup: incubation time: 72 h
experimentalEndpoint: normalised response (%)

- compound: "COc1cc2nccc(Oc3ccc(NC(=O)Nc4cc(C)on4)c(Cl)c3)c2cc1OC [Tivozanib] (1 nM)"
  experimentalEndpoint: "normalised response"
  measureUnit: "%"
  numericValue: 93.5
- compound: "COc1cc([C@@H]2c3cc4c(cc3[C@@H](O[C@@H]3O[C@@H]5CO[C@@H](c6cccs6)O[C@H]5[C@H](O)[C@H]3O)[C@H]3COC(=O)[C@H]23)OCO4)cc(OC)c1O [Teniposide] (1 nM)"
  experimentalEndpoint: "normalised response"
  measureUnit: "%"
  numericValue: 96.4
- compound: "CCCS(=O)(=O)Nc1ccc(F)c(C(=O)c2c[nH]c3ncc(-c4ccc(Cl)cc4)cc23)c1F [Vemurafenib] (1 nM)"
  experimentalEndpoint: "normalised response"
  measureUnit: "%"
  numericValue: 89.6
- compound: "CC1=C(/C=C/C(C)=C/C=C/C(C)=C/C(=O)O)C(C)(C)CCC1 [Tretinoin] (1 nM)"
  experimentalEndpoint: "normalised response"
  measureUnit: "%"
  numericValue: 98.7
- compound: "O=C(O)C1(C(=O)O)CCC1.[NH2-].[NH2-].[Pt+2] [Carboplatin] (10 nM)"
  experimentalEndpoint: "normalised response"
  measureUnit: "%"
  numericValue: 96.9
- compound: "Oc1ncc(N(CCCl)CCCl)c(O)n1 [Uracil mustard] (1 nM)"
  experimentalEndpoint: "normalised response"
  measureUnit: "%"
  numericValue: 98.8
